Entries and their measured IC50 follow.
Test system: MCF7
Assay: Cytotoxicity against human MCF7 cells by MTT assay
Format: functional, cell-based

Here are 3 compounds together with their reported answers.
{"columns": ["Line notation", "Measured target", "IC50"],
 "data": [
  ["COc1ccc(-c2nc(CN3CCN(Cc4cc5c6ccccc6n(CCCc6ccccc6)c5c(-c5ccc(OC)cc5)n4)CC3)cc3c4ccccc4n(CCCc4ccccc4)c23)cc1", "MCF7", "> 100 µM"],
  ["CCCCn1c2ccccc2c2cc(CN3CCN(Cc4cc5c6ccccc6n(CCCC)c5c(-c5ccc(OC)cc5)n4)CC3)nc(-c3ccc(OC)cc3)c21", "MCF7", "20.6 µM"],
  ["COc1ccc(-c2nc(CN3CCN(Cc4cc5c6ccccc6n(Cc6ccccc6)c5c(-c5ccc(OC)c(OC)c5)n4)CC3)cc3c4ccccc4n(Cc4ccccc4)c23)cc1OC", "MCF7", "> 100 µM"]
]}

IN: Given the compound c1ccc(CCCn2c3ccccc3c3cc(CN4CCN(Cc5cc6c7ccccc7n(CCCc7ccccc7)c6cn5)CC4)ncc32)cc1 , what is its reported IC50?
OUT: 7.62 µM

IN: Item under review: COc1ccc(-c2nc(CN3CCN(Cc4cc5c6ccccc6n(Cc6ccccc6)c5c(-c5ccc(OC)cc5)n4)CC3)cc3c4ccccc4n(Cc4ccccc4)c23)cc1 . Reported IC50?
OUT: > 100 µM

IN: State the recorded IC50 for this entry: c1ccc(Cn2c3ccccc3c3cc(CN4CCN(Cc5cc6c7ccccc7n(Cc7ccccc7)c6c(-c6ccccc6)n5)CC4)nc(-c4ccccc4)c32)cc1
OUT: > 100 µM
